tested on: U251 CNS; assay: NCI tumour cell line growth inhibition, 48 h
Consider the following molecules; for each one, report its TGI.

Briefly, TGI measured for CC12OC1(C)C1C(=O)OCC1C2=O (stereo not given) : > 100 µM

Briefly, TGI measured for COc1ccc(SCc2cc(OC)c(OC)c(OC)c2)cc1OC : > 100 µM

Briefly, TGI measured for O=S(=O)(O)SC/C=C\CSS(=O)(=O)O : > 100 µM

Briefly, TGI measured for CCc1cccc(C)c1NC(=O)C1=C(C)NC(C)=C(C(=O)Nc2c(C)cccc2CC)C1c1ccc([N+](=O)[O-])cc1 : > 100 µM

Briefly, TGI measured for O=C1Nc2cc(Cl)ccc2/C1=C\c1c(-c2ccc(F)cc2)nc2ccccn12 : 2.09 µM

Briefly, TGI measured for CN(C)Cc1cc(N=Nc2ccccc2)ccc1O : > 100 µM

Briefly, TGI measured for Fc1cnc(NC2CC2)nc1-c1cnc2ccc(N3CCOCC3)cn12 : > 42.4 µM

Briefly, TGI measured for C/C1=C\[C@H](C)C[C@H](C)OC(=O)C[C@H](c2ccc(O)cc2)NC(=O)[C@H](Cc2ccc(O)c(I)c2)N(C)C(=O)[C@H](C)NC(=O)[C@@H](C)C1 : 6.9 µM

Briefly, TGI measured for COP(=O)(OC)/C(=C/c1c[nH]c2ccccc12)C(=O)O : > 100 µM

Briefly, TGI measured for CCCCN1CCN(c2ccc3nc(-c4ccc5nc(-c6ccc(OC)c(OC)c6)[nH]c5c4)[nH]c3c2)CC1 : 2.26 µM

---

Consider the following molecules; for each one, report its TGI.
tested on: SNB-19 CNS; assay: NCI tumour cell line growth inhibition, 48 h

Briefly, TGI measured for COc1ccc2[nH]c(S(=O)(=O)N3CC(CCl)c4ccc(N)cc43)cc2c1 (stereo not given) : > 100 µM

Briefly, TGI measured for O=C(COc1ccc(/C=C/C(=O)c2ccc(Cl)cc2)cc1)Nc1c(Cl)cccc1Cl : > 100 µM

Briefly, TGI measured for O=C(O)CNC(=O)C(CS)Cc1ccccc1 (stereo not given) : > 25 µM

Briefly, TGI measured for CCn1cc(C(=O)O)c(=O)c2cc(F)c(N3CCN(S(=O)(=O)c4ccc(Cl)cc4)CC3)cc21 : > 100 µM

Briefly, TGI measured for O=C(NN1C(=O)CS(=O)(=O)C1c1cccc(F)c1)c1ccncc1 (stereo not given) : > 100 µM

---

Consider the following compounds; for each one, report its TGI.
test system: A498 renal; experiment: NCI tumour cell line growth inhibition, 48 h
Where a SMILES comes first, the peptide text is derived from it. The star is where a group is joined. Boc = CC(C)(C)OC(=O)*

Briefly, TGI measured for O=c1[nH]c(=O)n(C2CC(O)C(CO)O2)c2nc3cc4ccccc4cc3nc12 (stereo not given) : > 100 µM

Briefly, TGI measured for COc1cc2c(cc1O)NC(=S)[C@@H]1CCCN1C2=O : > 100 µM

Briefly, TGI measured for Cc1ccc(S(=O)(=O)N/N=C2\CC3C4C=CC3C2C4)cc1 (stereo not given) : > 100 µM

Briefly, TGI measured for CCOC(=O)C1(C)CCc2sc(N)c(C#N)c21 (stereo not given) : > 100 µM

Briefly, TGI measured for Nc1nc(-c2ccccc2)c(Cl)c(-c2cc(Cl)ccc2O)n1 : > 76.5 µM

Briefly, TGI measured for COc1ccc(C(=O)c2cc(OC)c3c(c2)OCO3)cc1O : 7.5 µM

Briefly, TGI measured for CC(C)(C)OC(=O)NC(Cc1ccc(O)cc1)C(=O)NC(CCCCN)C(=O)O (stereo not drawn) (Boc-Tyr-Lys-OH; configuration not given here) : 92.4 µM

Briefly, TGI measured for CCn1cc(C(=O)O)c(=O)c2cc(F)c(N3CCN(S(=O)(=O)c4ccc(Cl)cc4)CC3)cc21 : 7.47 µM

Briefly, TGI measured for O=[N+]([O-])c1ccc(C2=NN(c3ccccc3)C[N+](c3ccc(Br)cc3)=N2)cc1 : > 100 µM

Briefly, TGI measured for C(#Cc1cnccn1)/C=C\C#Cc1cnccn1 : 50.7 µM

---

tested on: KM12 colon; assay: NCI tumour cell line growth inhibition, 48 h
Consider the following compounds; for each one, report its TGI.

Briefly, TGI measured for CN1CCc2c(c3ccccc3c3ccccc23)C1 : 16.8 µM

Briefly, TGI measured for N=C(N)N=Nc1ccc(NN=C(N)N)c2c1ncc1c2nc2sccn21 : > 100 µM

Briefly, TGI measured for CCOc1nc(-c2ccccc2)cc2c(O)c(C(=O)N/N=C/c3ccc(O)cc3O)[nH]c(=O)c12 : > 100 µM

Briefly, TGI measured for O=c1c2ccc3cccc4c(=O)c5ccc6cccc1c6c5-c2c34 : > 50 µM

Briefly, TGI measured for CC(=O)[CH-]C(C)=O.CC(=O)[CH-]C(C)=O.CC(=O)[CH-]C(C)=O.[In+3] : > 100 µM

Briefly, TGI measured for O=C1CCCCCCCCCCC(=O)N2CCOCCOCCN1Cc1cccc(n1)C2 : > 100 µM

Briefly, TGI measured for O=S(=O)(Nc1ccccc1)c1ccc(-c2c3nc(c(-c4ccc(S(=O)(=O)Nc5ccccc5)cc4)c4ccc([nH]4)c(-c4ccc(S(=O)(=O)Nc5ccccc5)cc4)c4nc(c(-c5ccc(S(=O)(=O)Nc6ccccc6)cc5)c5ccc2[nH]5)C=C4)C=C3)cc1 : > 31.6 µM

Briefly, TGI measured for COc1ccc(C2=C3c4cc(OC)c(OC)cc4CCN3C(=S)SS2)cc1OC : > 100 µM

Briefly, TGI measured for COc1ccc(NC(=O)/C(Cc2nc3ccccc3[nH]c2=O)=N\O)c(OC)c1 : > 100 µM

Briefly, TGI measured for CC(C)[C@]12O[C@H]1[C@@H]1O[C@@]13[C@@]1(C)CCC4=C(COC4=O)[C@@H]1C[C@@H]1O[C@@]13C2=O : > 22.6 µM

Briefly, TGI measured for CCN(CC)Cc1cc(Nc2c3ccccc3nc3c4ccccc4n(C)c23)cc(CN(CC)CC)c1O : 20.7 µM

Briefly, TGI measured for Cn1c(O)c(C2=Nc3ccccc3C2=O)c2ccccc21 : > 100 µM

Briefly, TGI measured for C1CSCCCSCCCSCCCSCCCSC1 : > 100 µM

Briefly, TGI measured for CCN(CC)C(=O)C[n+]1c2ccccc2n2cc(N)ccc21 : > 100 µM

Briefly, TGI measured for CC1=NN(c2nc(N)nc(C(C#N)C(=O)c3cc4c(cc3Cl)Sc3nccn3S4(=O)=O)n2)C(C)(C)C1 (stereo unspecified) : > 100 µM

Briefly, TGI measured for COc1nc(N)c(C#N)c(C#N)c1C#N : > 10 µM

Briefly, TGI measured for COc1ccc(C(N)=O)c(OC)c1OCc1ccccc1 : > 100 µM

Briefly, TGI measured for Cc1cc(O)c(C=O)c2c1C(=O)Oc1c(CO)c(O)c3c(c1O2)C(O)OC3=O (stereo unspecified) : > 100 µM

Briefly, TGI measured for OC1(c2ccccc2)c2ccccc2NC2=NCCN21 (stereo unspecified) : > 100 µM

Briefly, TGI measured for C=C1CCC2C(C)(CO)C(O)CCC2(C)C1CC(O)/C(=C/CO)C(=O)O (stereo unspecified) : > 100 µM

Briefly, TGI measured for Nc1ccc2c(c1)C(=O)N(OS(=O)(=O)c1ccccc1)C2=O : > 100 µM

Briefly, TGI measured for CCOC(=O)C1=C(NC(C)(C)C)OC/C1=N\NC(=O)Cc1ccccc1 : > 100 µM

Briefly, TGI measured for Cc1cc(N(CCC#N)CCC#N)ccc1/C=C\C(=O)Nc1ccccc1 : > 100 µM

Briefly, TGI measured for COc1cccc(/C=C2\CCC(CCN(C)C)(C3=CCCC3)C2=O)c1 (stereo unspecified) : 31 µM

Briefly, TGI measured for c1ccc2c(c1)nc1n2sc2nc3ccccc3n21 : > 100 µM

Briefly, TGI measured for O=C1C=CC(=O)N1C1CCCCCCCCCCC1 : > 100 µM

Briefly, TGI measured for CCOC(=O)C(=O)Nc1ccc(C)c(C)c1 : > 93.8 µM

Briefly, TGI measured for Cc1ncc([N+](=O)[O-])n1CCNC(=O)CCCn1ccnc1[N+](=O)[O-] : > 100 µM

Briefly, TGI measured for O=C(Cn1ccnc1[N+](=O)[O-])c1ccccc1 : > 100 µM

Briefly, TGI measured for COc1cc2ncn(-c3cc(O[C@H](C)c4ccccc4Cl)c(C(N)=O)s3)c2cc1OC : 3.86 µM

Briefly, TGI measured for O=C1/C(=C\c2ccccc2)C2/C(=C\c3ccccc3)C(=O)/C(=C\c3ccccc3)C2/C1=C\c1ccccc1 (stereo unspecified) : 3.54 µM

Briefly, TGI measured for CC(C)(C)C(=O)N(C(=S)OCc1ccccn1)c1ccccc1 : 71.4 µM

Briefly, TGI measured for CSc1ncc2c(n1)-c1ccccc1OC2N1CCCCC1 (stereo unspecified) : > 100 µM

Briefly, TGI measured for Cc1ccc([N+](=O)[O-])cc1S(=O)(=O)Nc1ccc(C(=O)/C=C/c2cccs2)cc1 : 32.5 µM

Briefly, TGI measured for COc1ccc(SCc2cc(OC)c(OC)c(OC)c2)cc1OC : > 100 µM

Briefly, TGI measured for COC(=O)[C@H](NC(=O)OC(C)(C)C)[C@H]1COC(C)(C)O1 : > 100 µM

Briefly, TGI measured for CN1CCN([C@H]2C[C@H]3[C@@H]4CC=C5C[C@@H](N6CCCC6)CC[C@]5(C)[C@H]4CC[C@]3(C)[C@H]2O)CC1 : > 100 µM

Briefly, TGI measured for O=C(c1cc(Cl)ccc1Cl)N1CCN(c2cccc(Cl)c2)CC1 : 20 µM

Briefly, TGI measured for Clc1ccccc1/C=C\C1(c2ccccc2)OCCO1 : 23.7 µM

Briefly, TGI measured for CCOP(=O)(O)C(Nc1ccc(N=Nc2ccccc2)cc1)c1ccc(C(Nc2ccc(N=Nc3ccccc3)cc2)P(=O)(O)OCC)cc1 (stereo unspecified) : 31 µM

Briefly, TGI measured for COc1ccc(/C=C2\C(=O)N(C(=O)c3ccc(NC(C)=O)cc3)N=C2C)cc1 : > 100 µM
